Target: T1, RXFP1 receptor (UniProt Q9HBX9 1-757, limits assumed)
T1 sequence (looked up): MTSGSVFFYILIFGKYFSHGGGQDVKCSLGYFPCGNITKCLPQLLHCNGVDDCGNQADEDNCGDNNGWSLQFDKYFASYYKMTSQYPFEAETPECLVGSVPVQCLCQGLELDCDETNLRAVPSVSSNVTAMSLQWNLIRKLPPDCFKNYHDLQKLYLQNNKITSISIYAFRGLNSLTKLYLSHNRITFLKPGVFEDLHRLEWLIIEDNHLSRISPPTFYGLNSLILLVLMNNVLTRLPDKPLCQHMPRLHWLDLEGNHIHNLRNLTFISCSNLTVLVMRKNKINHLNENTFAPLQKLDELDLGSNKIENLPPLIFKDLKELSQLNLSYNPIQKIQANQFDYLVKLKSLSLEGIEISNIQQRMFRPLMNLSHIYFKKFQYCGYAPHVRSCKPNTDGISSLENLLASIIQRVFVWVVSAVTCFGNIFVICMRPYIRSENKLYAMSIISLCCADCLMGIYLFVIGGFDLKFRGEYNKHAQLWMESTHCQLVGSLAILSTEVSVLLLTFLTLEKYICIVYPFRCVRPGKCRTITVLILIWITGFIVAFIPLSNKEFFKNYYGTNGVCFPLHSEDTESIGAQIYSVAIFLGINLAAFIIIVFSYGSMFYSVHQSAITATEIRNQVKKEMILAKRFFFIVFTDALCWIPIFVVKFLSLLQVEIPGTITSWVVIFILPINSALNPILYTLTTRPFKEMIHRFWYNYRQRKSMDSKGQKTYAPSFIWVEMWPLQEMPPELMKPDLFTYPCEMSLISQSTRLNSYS
Assay: cell-based or functional assay
*1 amine or outer side, *2 acyl side, *3 side chain or, on linkers, in order; H or OH if unused. Primed or numbered codes have the meaning given here. Side-chain parts run from the residue outwards. [ ]: non-standard residue; d: D form. The star is where a group is joined. γGlu = O=C(O)[C@H](CCC(=O)[*:2])N[*:1]; Palmitoyl = CCCCCCCCCCCCCCCC(=O)*; αMeK = C[C@](N)(CCCCN)C(=O)O; Nle = CCCC[C@H](N)C(=O)O; PEG2′ = PEG2 spacer unit; PEG2″ = not defined here; Aib = CC(C)(N)C(=O)O
Quantity name: EMax, OVCAR 5 cells (cAMP) (%)
Enter your answer as a number in %; do not include the unit.

Binder: Ac-LEGREKVRAK(Ac)I[Aib][Aib]EG[Nle]STFSXAAK(Ac)[PEG2′][PEG2′][PEG2′][PEG2′][γGlu][γGlu][γGlu]K([γGlu-Palmitoyl])-NH2 (not fully specified (some residues); printed as Ac-L-E-G-R-E-K-V-R-A-K(Ac)-I-Aib-Aib-E-G-Nle-S-T-F-S-Mly-A-A-K(Ac)-PEG2-PEG2-PEG2-PEG2-gE-gE-gE-K(gE-Palm)-NH2) [peptide of SEQ ID NO: 139]
EMax, OVCAR 5 cells (cAMP), %: 92
//
Binder: Ac-LEGREKVRAK(Ac)I[Aib][Aib]EG[Nle]STFS[αMeK]RAK(Ac)[PEG2′][PEG2′][PEG2′][PEG2′]K([γGlu-γGlu-γGlu-Palmitoyl])-NH2 [peptide of SEQ ID NO: 192]
EMax, OVCAR 5 cells (cAMP), %: 91
//
Binder: Ac-LEGREKVRAQI[Aib][Aib]EG[Nle]STWS[Aib]RKKK[PEG2″][PEG2″][PEG2″][γGlu][γGlu][γGlu]K([γGlu-Palmitoyl])-NH2 [peptide of SEQ ID NO: 107]
EMax, OVCAR 5 cells (cAMP), %: 85

Lookup result for Ac-LEGREKVRAQI[Aib][Aib]EG[Nle]STWS[Aib]RKK([PEG2′-γGlu-γGlu-γGlu-Palmitoyl])-NH2 [peptide of SEQ ID NO: 55] ; measured EMax, OVCAR 5 cells (cAMP): 94
